Assay: Test for hygroscopicity (Chinese Pharmacopeia 2010, Appendix XIX J)
Type: physicochemical
Field: Weight increased by hygroscopy. Provide a value for each of the molecules that follow.
Please provide the amount together with its unit, number first.

molecule=Nc1sc(-c2c(F)cccc2F)nc1C(=O)Nc1cncnc1OCC1CCNCC1.O=C(O)/C=C/C(=O)O result=4.77%
molecule=CC(=O)O.Nc1sc(-c2c(F)cccc2F)nc1C(=O)Nc1cncnc1OCC1CCNCC1 result=9.21%
molecule="Nc1sc(-c2c(F)cccc2F)nc1C(=O)Nc1cncnc1OCC1CCNCC1 [EXAMPLE 1]" result=3.35%

Turning now to a further record.
I would be grateful if you could share the reported Weight increased by hygroscopy for Nc1sc(-c2c(F)cccc2F)nc1C(=O)Nc1cncnc1OCC1CCNCC1 [EXAMPLE 2] . 0.52%
